Molecular target: ferroportin (Homo sapiens, UniProt Q9NP59)
Sequence (Q9NP59 whole entry): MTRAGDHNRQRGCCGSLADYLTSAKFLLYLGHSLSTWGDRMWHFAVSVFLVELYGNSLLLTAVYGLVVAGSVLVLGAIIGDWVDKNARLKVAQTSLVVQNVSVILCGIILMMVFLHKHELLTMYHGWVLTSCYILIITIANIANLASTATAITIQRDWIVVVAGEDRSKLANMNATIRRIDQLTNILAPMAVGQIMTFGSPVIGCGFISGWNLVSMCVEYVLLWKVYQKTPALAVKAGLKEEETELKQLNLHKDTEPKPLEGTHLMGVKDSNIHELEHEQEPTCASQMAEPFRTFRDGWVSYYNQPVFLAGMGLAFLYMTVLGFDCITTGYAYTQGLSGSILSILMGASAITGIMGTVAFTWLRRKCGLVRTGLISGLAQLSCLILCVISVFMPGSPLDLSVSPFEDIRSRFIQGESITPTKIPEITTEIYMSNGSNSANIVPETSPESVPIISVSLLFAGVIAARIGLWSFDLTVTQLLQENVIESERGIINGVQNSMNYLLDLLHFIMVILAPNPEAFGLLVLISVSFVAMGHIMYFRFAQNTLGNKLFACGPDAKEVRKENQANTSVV
Assay: FPN activity assay: internalization/degradation of ferroportin-GFP in stably transfected HEK293 cells (loss of GFP fluorescence)
Assay type: cell-based
Conditions: ferroportin-GFP HEK293 cells, compound incubated at least 18 hours; read-out: FPN IC50
Non-standard residues stand in square brackets, D forms with d. Residues, ends and D or L forms follow the SMILES beside them. Groups on a side chain read outwards from the residue. *: point of attachment. Dip = N[C@H](C(=O)O)C(c1ccccc1)c1ccccc1; Palmitoyl = CCCCCCCCCCCCCCCC(=O)*; β3hF = N[C@H](CC(=O)O)Cc1ccccc1; Isovaleryl = CC(C)CC(=O)*; Ahx = NCCCCCC(=O)O
Quantity: DC50 (nM)
Expressed in nM, but write only the number.

Compound: CC(C)CC(=O)N[C@@H](CCC(=O)O)C(=O)N[C@H](C(=O)N[C@@H](Cc1c[nH]cn1)C(=O)N[C@H](C(=O)N1CCC[C@H]1C(=O)N[C@H](CCCCNC(=O)COCCOCCNC(=O)COCCOCCNC(=O)CCCCCNC(=O)CCCCCCCCCCCCCCCCC(=O)O)C(=O)N[C@H](CC(N)=O)Cc1ccccc1)C(c1ccccc1)c1ccccc1)[C@@H](C)O [compound 214]
Unit tag: nM
DC50: 86.8

Short answer please: DC50, ferroportin (Homo sapiens, UniProt Q9NP59), entry CCCCCCCCCCCCCCCC(=O)NCCCCCC(=O)NCCCC[C@H](NC(=O)CC(C)C)C(=O)N[C@H](C(=O)N[C@@H](Cc1c[nH]cn1)C(=O)N[C@H](C(=O)N1CCC[C@H]1C(=O)N[C@@H](C)C(=O)N[C@H](C(=O)N[C@H](CCCCN)C(=O)N[C@H](CC(N)=O)Cc1ccccc1)[C@@H](C)CC)C(c1ccccc1)c1ccccc1)[C@@H](C)O [compound 203] (Isovaleryl-K([Ahx-Palmitoyl])TH[Dip]PAI[dK][β3hF]-NH2)
654
